Experiment: Antiproliferative activity against African green monkey Vero cells assessed as cell growth inhibition
Assay type: toxicity, cell-based
Conditions: African green monkey (Chlorocebus sabaeus)
ASSAY_METRIC: IC50 (nM)
Respond with the bare value in nM.

COc1cc2c(cc1OS(N)(=O)=O)CC[C@@H]1[C@@H]2CC[C@]2(C)C(c3ccnc(Cl)c3)=CC[C@@H]12 = 1300

Proceeding to the next molecule to report its IC50.
Noted for COc1cc2c(cc1OS(N)(=O)=O)CC[C@@H]1[C@@H]2CC[C@]2(C)C(c3cncc(Cl)c3)=CC[C@@H]12 : its IC50 reads 30

Where do these numbers come from? They come from ChEMBL document CHEMBL5104124.
